# TARGET DESC: UniProtKB P31424
# METHOD: Positive allosteric modulation of rat mGlu5 receptor expressed in HEK293 cells assessed as increase in calcium mobilization after 60 secs in presence of glutamate by Fluo-4 AM dye-based fluorescence assay
# Type: functional, cell-based
METRIC: EC50 (nM)
Could you give me the number in nM? Just the number is fine.

Prompt: Give the measured EC50 for O=C(Nc1ccc(Cl)cc1CN1C(=O)c2cccc(F)c2C1=O)c1ccccn1
Completion: 214

---

Task for the reader: assign each of the following compounds its reported pEC50.
# TARGET DESC: UniProt:P47936
# METHOD: Inverse agonist activity at C-terminally prolink-tagged mouse CB2 receptor expressed in CHOK1 cells harboring beta-galactosidase enzyme fused beta-arrestin assessed as increase in beta-arrestin recruitment after 90 mins by chemiluminescent assay
# Type: cell-based
Scale: negative log10 of molar concentration, which is what pEC50 denotes.

Prompt: Give the measured pEC50 for O=C(c1cn(CCCCCF)c2ccccc12)C12CC3CC(CC(C3)C1)C2
Completion: 8.82

Prompt: Give the measured pEC50 for CN1CCCCC1Cn1cc(C(=O)C23CC4CC(CC(C4)C2)C3)c2ccccc21 (stereo not given)
Completion: 7.15

Prompt: Give the measured pEC50 for CCCCCn1cc(C(=O)C2C(C)(C)C2(C)C)c2ccccc21
Completion: 7.02

Prompt: Give the measured pEC50 for CCCn1c(C)c(C(=O)c2cccc3ccccc23)c2ccccc21
Completion: 6.80

Prompt: Give the measured pEC50 for COc1ccc(C(=O)c2c(C)n(CCN3CCOCC3)c3cc(I)ccc23)cc1
Completion: 8.05

---

# TARGET DESC: Kappa-type opioid receptor (Rattus norvegicus)
# Sequence (P34975 whole entry): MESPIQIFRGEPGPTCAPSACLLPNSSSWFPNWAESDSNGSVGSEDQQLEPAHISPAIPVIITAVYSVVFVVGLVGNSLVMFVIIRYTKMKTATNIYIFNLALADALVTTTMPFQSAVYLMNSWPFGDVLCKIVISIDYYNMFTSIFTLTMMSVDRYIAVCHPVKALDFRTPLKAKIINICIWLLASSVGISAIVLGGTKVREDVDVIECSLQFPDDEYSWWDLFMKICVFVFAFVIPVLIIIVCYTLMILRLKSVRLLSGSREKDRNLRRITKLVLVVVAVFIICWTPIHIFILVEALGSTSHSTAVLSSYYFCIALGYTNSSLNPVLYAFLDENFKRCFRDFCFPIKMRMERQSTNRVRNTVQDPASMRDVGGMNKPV
# METHOD: Agonist activity at GFP-tagged rat kappa opioid receptor expressed in HEK293 cells assessed as increase in beta-arrestin mediated p38 phosphorylation after 5 mins by Western blot analysis
# Type: cell-based
METRIC: pEC50
Scale: negative log10 of molar concentration, which is what pEC50 denotes.

Prompt: Give the measured pEC50 for CN(C(=O)/C=C/c1ccoc1)[C@@H]1CC[C@@]2(O)[C@H]3Cc4ccc(O)c5c4[C@@]2(CCN3CC2CC2)[C@H]1O5
Completion: 8.28

---

# TARGET DESC: D(2) dopamine receptor (Homo sapiens, UniProt P14416)
# Sequence (P14416 whole entry): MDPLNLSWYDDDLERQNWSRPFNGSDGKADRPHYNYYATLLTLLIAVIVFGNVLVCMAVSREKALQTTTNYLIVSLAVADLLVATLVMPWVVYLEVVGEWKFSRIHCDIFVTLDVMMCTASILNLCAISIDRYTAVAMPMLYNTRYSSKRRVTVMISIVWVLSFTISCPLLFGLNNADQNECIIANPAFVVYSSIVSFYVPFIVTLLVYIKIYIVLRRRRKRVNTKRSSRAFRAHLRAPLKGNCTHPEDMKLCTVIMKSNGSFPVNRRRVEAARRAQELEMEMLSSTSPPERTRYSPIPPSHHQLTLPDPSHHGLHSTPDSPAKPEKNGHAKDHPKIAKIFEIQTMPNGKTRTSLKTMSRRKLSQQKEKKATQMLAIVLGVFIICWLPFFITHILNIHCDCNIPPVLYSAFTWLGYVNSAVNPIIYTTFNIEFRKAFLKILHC
# METHOD: Agonist activity at dopamine D2long receptor (unknown origin) assessed as increase in beta-arrestin recruitment
Task for the reader: assign each of the following compounds its reported pEC50.
Scale: negative log10 of molar concentration, which is what pEC50 denotes.

Prompt: Give the measured pEC50 for CC1(Oc2ccc(Cl)cc2)CCN(CCOc2ccccc2)CC1
Completion: 6.92

Prompt: Give the measured pEC50 for CC1(Oc2ccc(Cl)cc2)CCN(CCOc2ccccc2C(F)(F)F)CC1
Completion: 6.22

---

Task for the reader: assign each of the following molecules its reported Emax.
# TARGET DESC: Histamine H4 receptor (Homo sapiens, UniProt Q9H3N8)
# Sequence (Q9H3N8 whole entry): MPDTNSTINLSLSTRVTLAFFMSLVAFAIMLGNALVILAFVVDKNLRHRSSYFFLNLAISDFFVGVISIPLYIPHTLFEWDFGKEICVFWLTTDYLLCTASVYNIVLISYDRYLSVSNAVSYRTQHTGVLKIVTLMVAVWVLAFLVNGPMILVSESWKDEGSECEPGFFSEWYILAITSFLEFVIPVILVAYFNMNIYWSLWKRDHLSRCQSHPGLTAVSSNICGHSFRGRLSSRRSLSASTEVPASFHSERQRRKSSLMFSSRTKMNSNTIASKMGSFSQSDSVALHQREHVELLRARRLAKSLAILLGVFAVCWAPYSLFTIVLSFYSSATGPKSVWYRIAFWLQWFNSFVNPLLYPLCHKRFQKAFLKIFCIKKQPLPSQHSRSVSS
# METHOD: Agonist activity at histamine H4 receptor (unknown origin) expressed in HEK293T cells harboring CRE-luciferase after 6 hrs by luciferase reporter gene assay relative to control
# Assay type: functional, cell-based
Could you give me the number in %? Just the number is fine.

Prompt: Give the measured Emax for N=C(NCc1cccc(Cl)c1)SCCCc1c[nH]cn1
Completion: 92

Prompt: Give the measured Emax for c1nc(CCn2cc(CC3CCCCC3)nn2)c[nH]1
Completion: 82

Prompt: Give the measured Emax for CN1CCN(c2cc(NCc3ccccc3)nc(N)n2)CC1
Completion: 79

Prompt: Give the measured Emax for CN1CCN(C(=O)c2cc3cc(Cl)cc([N+](=O)[O-])c3[nH]2)CC1
Completion: 105

---

# TARGET DESC: Kappa-type opioid receptor (Rattus norvegicus)
# METHOD: Agonist activity at GFP-tagged rat kappa opioid receptor expressed in HEK293 cells assessed as increase in ERK1/2 phosphorylation after 5 mins by Western blot analysis
# Format: cell-based
METRIC: pEC50
Scale: negative log10 of molar concentration, which is what pEC50 denotes.

Prompt: Please report pEC50 with Kappa-type opioid receptor (Rattus norvegicus) for item CN(C(=O)/C=C/c1ccoc1)[C@@H]1CC[C@@]2(O)[C@H]3Cc4ccc(O)c5c4[C@@]2(CCN3CC2CC2)[C@H]1O5 [NALFURAFINE] .
Completion: 9.30

---

# TARGET DESC: Metabotropic glutamate receptor 5 (Rattus norvegicus)
# Sequence (P31424 whole entry): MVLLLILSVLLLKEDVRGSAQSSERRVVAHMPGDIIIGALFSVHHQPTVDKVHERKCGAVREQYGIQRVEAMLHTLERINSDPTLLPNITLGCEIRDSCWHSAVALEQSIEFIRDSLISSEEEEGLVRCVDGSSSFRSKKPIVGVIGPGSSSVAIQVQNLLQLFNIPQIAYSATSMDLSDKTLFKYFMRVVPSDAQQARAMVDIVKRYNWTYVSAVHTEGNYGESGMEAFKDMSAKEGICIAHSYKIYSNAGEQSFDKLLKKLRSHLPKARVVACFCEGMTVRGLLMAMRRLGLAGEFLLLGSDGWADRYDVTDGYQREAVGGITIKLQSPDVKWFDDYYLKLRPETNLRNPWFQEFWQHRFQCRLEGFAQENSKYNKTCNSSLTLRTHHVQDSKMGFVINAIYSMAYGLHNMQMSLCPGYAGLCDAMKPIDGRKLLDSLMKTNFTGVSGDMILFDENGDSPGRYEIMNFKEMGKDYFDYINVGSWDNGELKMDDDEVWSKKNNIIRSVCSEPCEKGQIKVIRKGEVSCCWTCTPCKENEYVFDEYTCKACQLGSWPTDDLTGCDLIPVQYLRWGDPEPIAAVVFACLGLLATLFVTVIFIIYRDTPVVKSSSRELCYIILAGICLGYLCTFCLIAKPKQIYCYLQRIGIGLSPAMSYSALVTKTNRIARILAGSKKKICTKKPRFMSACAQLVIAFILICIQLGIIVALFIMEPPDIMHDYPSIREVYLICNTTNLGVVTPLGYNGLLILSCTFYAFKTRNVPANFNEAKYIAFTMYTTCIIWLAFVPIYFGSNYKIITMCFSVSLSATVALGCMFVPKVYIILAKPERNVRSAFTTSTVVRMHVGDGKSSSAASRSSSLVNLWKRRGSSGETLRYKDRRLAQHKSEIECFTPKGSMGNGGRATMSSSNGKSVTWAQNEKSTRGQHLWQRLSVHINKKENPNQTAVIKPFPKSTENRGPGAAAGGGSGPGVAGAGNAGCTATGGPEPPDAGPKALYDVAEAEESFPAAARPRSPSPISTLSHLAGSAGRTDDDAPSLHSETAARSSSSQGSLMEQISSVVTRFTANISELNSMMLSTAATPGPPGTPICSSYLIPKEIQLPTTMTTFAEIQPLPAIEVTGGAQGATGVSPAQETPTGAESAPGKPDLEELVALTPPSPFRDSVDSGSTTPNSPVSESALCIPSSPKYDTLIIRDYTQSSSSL
# METHOD: Positive allosteric modulation of rat mGlu5 receptor expressed in HEK293 cells assessed as increase in calcium mobilization
# Type: functional, cell-based
METRIC: EC50 (nM)
Could you give me the number in nM? Just the number is fine.

Prompt: Give the measured EC50 for O=C(c1ccc(F)cc1)N1CCc2nc(COc3ccccc3)oc2C1
Completion: 235

---

# TARGET DESC: Cannabinoid receptor 2 (Mus musculus)
# Sequence (P47936 whole entry, the tested form may be a part): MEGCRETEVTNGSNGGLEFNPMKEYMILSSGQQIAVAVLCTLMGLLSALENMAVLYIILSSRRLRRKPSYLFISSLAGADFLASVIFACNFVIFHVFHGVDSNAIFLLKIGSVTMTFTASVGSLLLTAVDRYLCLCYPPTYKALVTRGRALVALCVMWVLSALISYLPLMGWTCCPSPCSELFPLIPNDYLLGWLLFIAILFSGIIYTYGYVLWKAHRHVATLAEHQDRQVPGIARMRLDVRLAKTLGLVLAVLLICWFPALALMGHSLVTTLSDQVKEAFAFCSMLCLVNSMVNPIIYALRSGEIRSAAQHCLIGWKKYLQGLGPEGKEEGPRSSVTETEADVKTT
# METHOD: Inverse agonist activity at C-terminally prolink-tagged mouse CB2 receptor expressed in CHOK1 cells harboring beta-galactosidase enzyme fused beta-arrestin assessed as increase in beta-arrestin recruitment after 90 mins by chemiluminescent assay relative to control
# Type: cell-based
Task for the reader: assign each of the following compounds its reported Emax.
Could you give me the number in %? Just the number is fine.

Prompt: Give the measured Emax for CCCCCCC(C)(C)c1cc(OC)c([C@@H]2C=C(CO)[C@H]3C[C@@H]2C3(C)C)c(OC)c1
Completion: 3

Prompt: Give the measured Emax for CCCn1c(C)c(C(=O)c2cccc3ccccc23)c2ccccc21
Completion: 28

Prompt: Give the measured Emax for O=C(c1cn(CCCCCF)c2ccccc12)C12CC3CC(CC(C3)C1)C2
Completion: 62

Prompt: Give the measured Emax for CCCCCc1cc(O)c2c(c1)OC(C)(C)[C@@H]1CCC(C)=C[C@@H]21
Completion: 3

Prompt: Give the measured Emax for CN1CCCCC1Cn1cc(C(=O)C23CC4CC(CC(C4)C2)C3)c2ccccc21 (stereo not drawn)
Completion: 52

Prompt: Give the measured Emax for Cc1c(C(=O)NN2CCCCC2)nn(-c2ccc(Cl)cc2Cl)c1-c1ccc(Cl)cc1
Completion: -43

Prompt: Give the measured Emax for COc1ccc(C(=O)c2c(C)n(CCN3CCOCC3)c3cc(I)ccc23)cc1
Completion: 43

Prompt: Give the measured Emax for CCCCCn1cc(C(=O)C2C(C)(C)C2(C)C)c2ccccc21
Completion: 70
